Taken from patent US20220081389A1.

Tested on: Spodoptera frugiperda
Experimental Details: Insecticidal activity test against Spodoptera frugiperda (leaf dip, maize seedlings)
Format: in vivo
Condition Context: 0.1 ppm; 2nd day after treatment; leaf dip, 3rd-instar larvae
Measurement Type: Mortality (%) against Spodoptera frugiperda, 2 d
Units required after the number.

What value of Mortality (%) against Spodoptera frugiperda, 2 d has been reported for the following molecule? O=C(Nc1c(Br)cc(C(F)(C(F)(F)F)C(F)(F)F)cc1OC(F)F)c1cccc(N(CC2CC2)C(=O)c2ccc(Cl)cc2)c1F [Compound 44]
62.50%

Quick one: Mortality (%) against Spodoptera frugiperda, 2 d of O=C(Nc1c(Br)cc(C(F)(C(F)(F)F)C(F)(F)F)cc1OC(F)F)c1cccc(N(CC2CC2)C(=O)c2ccnc(F)c2)c1F [Compound 120] ?
100%

Any idea what Mortality (%) against Spodoptera frugiperda, 2 d was measured for O=C(Nc1c(Br)cc(C(F)(C(F)(F)F)C(F)(F)F)cc1OC(F)F)c1cccc(N(CC2CC2)C(=O)c2ccnc(Cl)c2)c1F [Compound 119] ?
79.17%

If you can, please state the reported Mortality (%) against Spodoptera frugiperda, 2 d value of N#Cc1ccc(C(=O)N(CC2CC2)c2cccc(C(=O)Nc3c(Br)cc(C(F)(C(F)(F)F)C(F)(F)F)cc3OC(F)F)c2F)cc1 [Compound 14] .
79.17%

====

Test system: Spodoptera frugiperda
Experimental Details: Insecticidal activity test against Spodoptera frugiperda (leaf dip, maize seedlings)
Format: in vivo
Condition Context: 0.1 ppm; 1st day after treatment; leaf dip, 3rd-instar larvae
Measurement Type: Mortality (%) against Spodoptera frugiperda, 1 d
// note: answer is a bare numeric in %

Would you kindly share the measured Mortality (%) against Spodoptera frugiperda, 1 d for "N#Cc1ccc(C(=O)N(CC2CC2)c2cccc(C(=O)Nc3c(Br)cc(C(F)(C(F)(F)F)C(F)(F)F)cc3OC(F)F)c2F)cc1" ?
29.17

Quick check: Mortality (%) against Spodoptera frugiperda, 1 d of "O=C(Nc1c(Br)cc(C(F)(C(F)(F)F)C(F)(F)F)cc1OC(F)F)c1cccc(N(CC2CC2)C(=O)c2ccc(Cl)cc2)c1F" ?
37.50

Bench note: what Mortality (%) against Spodoptera frugiperda, 1 d did "O=C(Nc1c(Br)cc(C(F)(C(F)(F)F)C(F)(F)F)cc1OC(F)F)c1cccc(N(CC2CC2)C(=O)c2ccnc(F)c2)c1F" show?
58.33

Reported Mortality (%) against Spodoptera frugiperda, 1 d, molecule "O=C(Nc1c(Br)cc(C(F)(C(F)(F)F)C(F)(F)F)cc1OC(F)F)c1cccc(N(CC2CC2)C(=O)c2ccnc(Cl)c2)c1F" : ____
54.17

====

Test system: Spodoptera frugiperda
Experimental Details: Insecticidal activity test against Spodoptera frugiperda (leaf dip, maize seedlings)
Format: in vivo
Condition Context: 0.1 ppm; 3rd day after treatment; leaf dip, 3rd-instar larvae
Provide the reported Mortality (%) against Spodoptera frugiperda, 3 d of each item.
Respond with the bare value in %.

Fill in the recorded Mortality (%) against Spodoptera frugiperda, 3 d for this compound, with Spodoptera frugiperda as test system: "N#Cc1ccc(C(=O)N(CC2CC2)c2cccc(C(=O)Nc3c(Br)cc(C(F)(C(F)(F)F)C(F)(F)F)cc3OC(F)F)c2F)cc1"
95.83

Lab request: please report Mortality (%) against Spodoptera frugiperda, 3 d under test system Spodoptera frugiperda for "O=C(Nc1c(Br)cc(C(F)(C(F)(F)F)C(F)(F)F)cc1OC(F)F)c1cccc(N(CC2CC2)C(=O)c2ccc(Cl)cc2)c1F"
91.67

Record lookup: for Spodoptera frugiperda, what Mortality (%) against Spodoptera frugiperda, 3 d belongs to "O=C(Nc1c(Br)cc(C(F)(C(F)(F)F)C(F)(F)F)cc1OC(F)F)c1cccc(N(CC2CC2)C(=O)c2ccnc(Cl)c2)c1F" ?
91.67

Request: Mortality (%) against Spodoptera frugiperda, 3 d, test system Spodoptera frugiperda, entry "O=C(Nc1c(Br)cc(C(F)(C(F)(F)F)C(F)(F)F)cc1OC(F)F)c1cccc(N(CC2CC2)C(=O)c2ccnc(F)c2)c1F"
100
